Hi! I'm sharing some pKi results obtained with Envelope glycoprotein gp160 (Human immunodeficiency virus 1).
Sequence (Q6QLK5 whole entry): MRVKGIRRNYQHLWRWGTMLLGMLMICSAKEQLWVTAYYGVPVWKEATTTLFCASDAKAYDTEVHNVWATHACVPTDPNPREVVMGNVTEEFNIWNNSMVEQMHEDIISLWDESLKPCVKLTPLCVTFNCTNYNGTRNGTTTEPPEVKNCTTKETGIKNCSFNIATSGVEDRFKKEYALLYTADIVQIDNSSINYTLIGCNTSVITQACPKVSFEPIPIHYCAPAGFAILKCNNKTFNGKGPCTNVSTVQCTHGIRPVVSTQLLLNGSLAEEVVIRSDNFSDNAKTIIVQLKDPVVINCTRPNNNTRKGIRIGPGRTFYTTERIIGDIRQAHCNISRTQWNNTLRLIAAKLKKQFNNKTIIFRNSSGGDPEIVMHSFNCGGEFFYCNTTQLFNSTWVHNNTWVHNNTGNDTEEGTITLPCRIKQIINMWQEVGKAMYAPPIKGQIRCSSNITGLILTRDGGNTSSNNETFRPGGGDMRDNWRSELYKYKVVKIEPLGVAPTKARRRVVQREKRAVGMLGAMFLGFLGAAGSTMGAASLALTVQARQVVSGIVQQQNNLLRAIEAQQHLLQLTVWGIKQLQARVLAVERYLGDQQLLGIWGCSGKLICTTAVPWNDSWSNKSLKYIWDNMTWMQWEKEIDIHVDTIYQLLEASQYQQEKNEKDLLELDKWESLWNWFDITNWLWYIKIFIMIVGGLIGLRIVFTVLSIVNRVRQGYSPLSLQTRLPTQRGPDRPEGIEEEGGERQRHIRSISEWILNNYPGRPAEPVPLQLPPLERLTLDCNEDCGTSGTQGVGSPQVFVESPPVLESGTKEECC
pKi: −log10 of the molar value.

SMILES: COc1cccc(Cn2ccc3ccc(-c4ccc5cn(Cc6cccc(C(=O)O)c6)nc5c4)cc32)c1
pKi: 6.00
//
SMILES: CC(=O)Nc1cccc(Cn2ccc3ccc(-c4ccc5ccn(Cc6cccc(C(=O)O)c6)c5c4)cc32)c1
pKi: 6.05
//
SMILES: COC(=O)c1cccc(Cn2ccc3ccc(-c4ccc5cnn(Cc6cccc(C(=O)O)c6)c5c4)cc32)c1
pKi: 5.49
//
SMILES: COc1cccc(Cn2ccc3ccc(-c4ccc5c(C)cn(Cc6cccc(C(=O)O)c6)c5c4)cc32)c1
pKi: 5.92
//
SMILES: COc1cccc(CN(C)c2cccc(-c3ccc4ccn(Cc5cccc(C(=O)O)c5)c4c3)c2)c1
pKi: 6.10
//
SMILES: Cn1ccc2ccc(-c3ccc4c(c3)N(Cc3cccc(C(=O)O)c3)CC4)cc21
pKi: 5.00
//
SMILES: COc1cccc(CN(C(=O)OC(C)(C)C)c2cccc(-c3ccc4ccn(Cc5cccc(C(=O)O)c5)c4c3)c2)c1
pKi: 6.35
//
SMILES: Cn1ccc2ccc(-c3ccc4cnn(Cc5cc(F)cc(C(=O)O)c5)c4c3)cc21
pKi: 5.68
//
SMILES: Cn1ccc2ccc(-c3ccc4ccn(Cc5cc(F)cc(C(=O)O)c5)c4c3)cc21
pKi: 5.52
//
SMILES: CC(C)(C)OC(=O)N1CCc2ccc(-c3ccc4ccn(Cc5cccc(C(=O)O)c5)c4c3)cc21
pKi: 6.05
//
SMILES: COc1cccc(CNc2cccc(-c3ccc4ccn(Cc5cccc(C(=O)O)c5)c4c3)c2)c1
pKi: 5.82
//
SMILES: CC(C)(C)OC(=O)Nc1cccc(Cn2ccc3ccc(-c4ccc5ccn(Cc6cccc(C(=O)O)c6)c5c4)cc32)c1
pKi: 5.82
//
SMILES: Nc1ccc(Cn2ccc3ccc(-c4ccc5ccn(Cc6cccc(C(=O)O)c6)c5c4)cc32)cc1
pKi: 5.51
//
SMILES: Cn1ncc2ccc(-c3ccc4cnn(Cc5ccc(F)c(C(=O)O)c5)c4c3)cc21
pKi: 4.72
//
SMILES: Cn1ncc2ccc(-c3ccc4ccn(Cc5cc(F)cc(C(=O)O)c5)c4c3)cc21
pKi: 5.60
//
SMILES: COC(=O)c1cc(F)cc(Cn2ccc3ccc(-c4ccc5ccn(Cc6cccc(C(=O)O)c6)c5c4)cc32)c1
pKi: 6.00
//
SMILES: CC(C)(C)OC(=O)n1ccc2ccc(-c3ccc4ccn(Cc5cccc(C(=O)O)c5)c4c3)cc21
pKi: 5.72
//
SMILES: Cc1ccc(S(=O)(=O)n2ccc3ccc(-c4ccc5ccn(Cc6cccc(C(=O)O)c6)c5c4)cc32)cc1
pKi: 5.92

---

# ASSAY_NOTES: Cytotoxicity against human PBMC by MTS or resazurin dye based assay
# Assay type: cell-based
Below, each of the compounds is paired with its reported CC50 value.

SMILES: COc1cc(Cn2ccc3ccc(-c4ccc5ccn(Cc6cccc(C(=O)O)c6)c5c4)cc32)cc(C(=O)O)c1
CC50: > 20 µM

SMILES: COc1cccc(Cn2ccc3ccc(-c4ccc5c(C)cn(Cc6cccc(C(=O)O)c6)c5c4)cc32)c1
CC50: 70 µM

SMILES: COC(=O)c1cc(Cn2ccc3ccc(-c4ccc5ccn(Cc6cccc(C(=O)O)c6)c5c4)cc32)cc(C(=O)OC)c1
CC50: > 20 µM

SMILES: COC(=O)c1cccc(Cn2ccc3cc(F)c(-c4ccc5ccn(Cc6cccc(C(=O)O)c6)c5c4)cc32)c1
CC50: > 20 µM

SMILES: CC(C)(C)OC(=O)n1ccc2ccc(-c3ccc4ccn(Cc5cccc(C(=O)O)c5)c4c3)cc21
CC50: > 20 µM

SMILES: CC(C)(C)OC(=O)Nc1cccc(Cn2ccc3ccc(-c4ccc5ccn(Cc6cccc(C(=O)O)c6)c5c4)cc32)c1
CC50: > 20 µM

SMILES: COC(=O)c1cccc(Cn2ncc3ccc(-c4ccc5ccn(Cc6cccc(C(=O)O)c6)c5c4)cc32)c1
CC50: > 50 µM

SMILES: CN(C(=O)OC(C)(C)C)c1cccc(-c2ccc3ccn(Cc4cccc(C(=O)O)c4)c3c2)c1
CC50: > 20 µM

SMILES: Cn1cc2ccc(-c3ccc4ccn(Cc5cc(F)cc(C(=O)O)c5)c4c3)cc2n1
CC50: > 20 µM

SMILES: COC(=O)c1cc(F)cc(Cn2ccc3ccc(-c4ccc5ccn(Cc6cccc(C(=O)O)c6)c5c4)cc32)c1
CC50: > 20 µM

SMILES: CC(C)(C)OC(=O)N1CCC(Cn2ccc3ccc(-c4ccc5ccn(Cc6cccc(C(=O)O)c6)c5c4)cc32)CC1
CC50: > 20 µM

SMILES: Cn1ccc2ccc(-c3ccc4ccn(Cc5cc(F)cc(C(=O)O)c5)c4c3)cc21
CC50: > 20 µM

SMILES: COC(=O)c1ccc(Cn2ccc3ccc(-c4ccc5ccn(Cc6cccc(C(=O)O)c6)c5c4)cc32)c(OC)c1
CC50: 25 µM

SMILES: COc1cccc(Cn2ccc3cc(F)c(-c4ccc5ccn(Cc6cccc(C(=O)O)c6)c5c4)cc32)c1
CC50: > 20 µM

SMILES: CC(C)(C)OC(=O)c1cccc(Cn2ccc3ccc(-c4ccc5ccn(Cc6cccc(C(=O)O)c6)c5c4)cc32)c1
CC50: > 10 µM

SMILES: O=C(O)c1cccc(Cn2ccc3ccc(-c4ccc5ccn(Cc6cccc([N+](=O)[O-])c6)c5c4)cc32)c1
CC50: > 20 µM

SMILES: COc1cccc(Cn2ccc3ccc(-c4ccc5cn(Cc6cccc(C(=O)O)c6)nc5c4)cc32)c1
CC50: > 20 µM

SMILES: COc1cccc(CN(C)c2cccc(-c3ccc4ccn(Cc5cccc(C(=O)O)c5)c4c3)c2)c1
CC50: > 20 µM

SMILES: COc1cccc(CN(C(=O)OC(C)(C)C)c2cccc(-c3ccc4ccn(Cc5cccc(C(=O)O)c5)c4c3)c2)c1
CC50: > 10 µM

SMILES: Nc1ccc(Cn2ccc3ccc(-c4ccc5ccn(Cc6cccc(C(=O)O)c6)c5c4)cc32)cc1
CC50: > 20 µM

SMILES: COc1cccc(CNc2cccc(-c3ccc4ccn(Cc5cccc(C(=O)O)c5)c4c3)c2)c1
CC50: > 10 µM

SMILES: O=C(O)c1cccc(Cn2ccc3ccc(-c4ccc5ccn(Cc6cccc(OC(F)(F)F)c6)c5c4)cc32)c1
CC50: > 20 µM

SMILES: Cc1ccc(S(=O)(=O)n2ccc3ccc(-c4ccc5ccn(Cc6cccc(C(=O)O)c6)c5c4)cc32)cc1
CC50: > 50 µM

SMILES: Cc1cn(C(=O)OC(C)(C)C)c2cc(-c3ccc4ccn(Cc5cccc(C(=O)O)c5)c4c3)ccc12
CC50: > 20 µM

---

# ASSAY_NOTES: Cytotoxicity against human PBMC by MTS or resazurin dye based assay
# Type: cell-based

SMILES: Cn1ccc2ccc(-c3ccc4c(c3)N(Cc3cccc(C(=O)O)c3)CC4)cc21
CC50: > 50 µM
//
SMILES: Cn1ccc2ccc(-c3ccc4cnn(Cc5cc(F)cc(C(=O)O)c5)c4c3)cc21
CC50: > 20 µM
//
SMILES: CC(=O)Nc1cccc(Cn2ccc3ccc(-c4ccc5ccn(Cc6cccc(C(=O)O)c6)c5c4)cc32)c1
CC50: > 20 µM
//
SMILES: COC(=O)c1cccc(Cn2ccc3ccc(-c4ccc5cnn(Cc6cccc(C(=O)O)c6)c5c4)cc32)c1
CC50: > 20 µM
//
SMILES: Cn1ncc2ccc(-c3ccc4cnn(Cc5ccc(F)c(C(=O)O)c5)c4c3)cc21
CC50: 200 µM
//
SMILES: COc1cccc(CN2CCc3ccc(-c4ccc5ccn(Cc6cccc(C(=O)O)c6)c5c4)cc32)c1
CC50: > 25 µM
//
SMILES: Cn1ccc2cc(F)c(-c3ccc4ccn(Cc5cc(F)cc(C(=O)O)c5)c4c3)cc21
CC50: > 20 µM
//
SMILES: CC(C)(C)OC(=O)N1CCc2ccc(-c3ccc4ccn(Cc5cccc(C(=O)O)c5)c4c3)cc21
CC50: > 25 µM
//
SMILES: Cn1ncc2ccc(-c3ccc4ccn(Cc5cc(F)cc(C(=O)O)c5)c4c3)cc21
CC50: > 20 µM

---

Below, each of the molecules is paired with its reported pIC50 value.
# Tested on: Human immunodeficiency virus 1
# ASSAY_NOTES: Antiviral activity against HIV-1 Bal infected in human MAGI-CCR5 cells assessed as reduction in viral infection after 48 hrs by fluorescence based beta-galactosidase reporter gene assay
# Type: functional, organism-based
# COND: Human immunodeficiency virus 1, Bal, MAGI-CCR5, 48 h
pIC50: −log10 of the molar value.
PROPERTY_MEASURED: pIC50

SMILES: CC(C)(C)OC(=O)N1CCc2ccc(-c3ccc4ccn(Cc5cccc(C(=O)O)c5)c4c3)cc21
OPERATOR: =
MEAS_VALUE: 5.64
--
SMILES: COc1cccc(Cn2ccc3cc(F)c(-c4ccc5ccn(Cc6cccc(C(=O)O)c6)c5c4)cc32)c1
OPERATOR: =
MEAS_VALUE: 5.03
--
SMILES: CC(C)(C)OC(=O)c1cccc(Cn2ccc3ccc(-c4ccc5ccn(Cc6cccc(C(=O)O)c6)c5c4)cc32)c1
OPERATOR: =
MEAS_VALUE: 6.70
--
SMILES: COC(=O)c1ccc(Cn2ccc3ccc(-c4ccc5ccn(Cc6cccc(C(=O)O)c6)c5c4)cc32)c(OC)c1
OPERATOR: =
MEAS_VALUE: 5.38
--
SMILES: Cn1cc2ccc(-c3ccc4ccn(Cc5cc(F)cc(C(=O)O)c5)c4c3)cc2n1
OPERATOR: =
MEAS_VALUE: 4.85
--
SMILES: Cc1cn(C(=O)OC(C)(C)C)c2cc(-c3ccc4ccn(Cc5cccc(C(=O)O)c5)c4c3)ccc12
OPERATOR: =
MEAS_VALUE: 5.92
--
SMILES: CC(C)(C)OC(=O)n1ccc2ccc(-c3ccc4ccn(Cc5cccc(C(=O)O)c5)c4c3)cc21
OPERATOR: =
MEAS_VALUE: 6.05
--
SMILES: Nc1ccc(Cn2ccc3ccc(-c4ccc5ccn(Cc6cccc(C(=O)O)c6)c5c4)cc32)cc1
OPERATOR: =
MEAS_VALUE: 5.96
--
SMILES: O=C(O)c1cccc(Cn2ccc3ccc(-c4ccc5ccn(Cc6cccc([N+](=O)[O-])c6)c5c4)cc32)c1
OPERATOR: =
MEAS_VALUE: 5.55
--
SMILES: CN(C(=O)OC(C)(C)C)c1cccc(-c2ccc3ccn(Cc4cccc(C(=O)O)c4)c3c2)c1
OPERATOR: =
MEAS_VALUE: 4.81
--
SMILES: CC(C)(C)OC(=O)N1CCC(Cn2ccc3ccc(-c4ccc5ccn(Cc6cccc(C(=O)O)c6)c5c4)cc32)CC1
OPERATOR: =
MEAS_VALUE: 6.22
--
SMILES: COC(=O)c1cc(F)cc(Cn2ccc3ccc(-c4ccc5ccn(Cc6cccc(C(=O)O)c6)c5c4)cc32)c1
OPERATOR: =
MEAS_VALUE: 6.40
--
SMILES: COc1cccc(CN(C(=O)OC(C)(C)C)c2cccc(-c3ccc4ccn(Cc5cccc(C(=O)O)c5)c4c3)c2)c1
OPERATOR: =
MEAS_VALUE: 5.26
--
SMILES: CC(=O)Nc1cccc(Cn2ccc3ccc(-c4ccc5ccn(Cc6cccc(C(=O)O)c6)c5c4)cc32)c1
OPERATOR: =
MEAS_VALUE: 5.33
--
SMILES: Cn1ccc2ccc(-c3ccc4cnn(Cc5cc(F)cc(C(=O)O)c5)c4c3)cc21
OPERATOR: <
MEAS_VALUE: 4.70
--
SMILES: COC(=O)c1cccc(Cn2ncc3ccc(-c4ccc5ccn(Cc6cccc(C(=O)O)c6)c5c4)cc32)c1
OPERATOR: =
MEAS_VALUE: 5.85
--
SMILES: Cn1ncc2ccc(-c3ccc4ccn(Cc5cc(F)cc(C(=O)O)c5)c4c3)cc21
OPERATOR: =
MEAS_VALUE: 5.00
--
SMILES: COC(=O)c1cccc(Cn2ccc3cc(F)c(-c4ccc5ccn(Cc6cccc(C(=O)O)c6)c5c4)cc32)c1
OPERATOR: =
MEAS_VALUE: 6.30
--
SMILES: Cn1ccc2cc(F)c(-c3ccc4ccn(Cc5cc(F)cc(C(=O)O)c5)c4c3)cc21
OPERATOR: =
MEAS_VALUE: 5.01
--
SMILES: Cn1ccc2ccc(-c3ccc4c(c3)N(Cc3cccc(C(=O)O)c3)CC4)cc21
OPERATOR: <
MEAS_VALUE: 4.60
--
SMILES: COc1cc(Cn2ccc3ccc(-c4ccc5ccn(Cc6cccc(C(=O)O)c6)c5c4)cc32)cc(C(=O)O)c1
OPERATOR: <
MEAS_VALUE: 4.70

Where these numbers come from: ChEMBL document CHEMBL4325884
